Below, each entry is listed alongside its reported EC50 (nM), IL-8 secretion by primary cynomolgus keratinocytes, 250 ng/ml cyno IL-36γ.
biological target: cynomolgus IL-36R (on cells, allelic variant not stated) (cynomolgus monkey), A0A2K5; assay: cell-based or functional assay
Sequence (chain, as listed by the source mutant): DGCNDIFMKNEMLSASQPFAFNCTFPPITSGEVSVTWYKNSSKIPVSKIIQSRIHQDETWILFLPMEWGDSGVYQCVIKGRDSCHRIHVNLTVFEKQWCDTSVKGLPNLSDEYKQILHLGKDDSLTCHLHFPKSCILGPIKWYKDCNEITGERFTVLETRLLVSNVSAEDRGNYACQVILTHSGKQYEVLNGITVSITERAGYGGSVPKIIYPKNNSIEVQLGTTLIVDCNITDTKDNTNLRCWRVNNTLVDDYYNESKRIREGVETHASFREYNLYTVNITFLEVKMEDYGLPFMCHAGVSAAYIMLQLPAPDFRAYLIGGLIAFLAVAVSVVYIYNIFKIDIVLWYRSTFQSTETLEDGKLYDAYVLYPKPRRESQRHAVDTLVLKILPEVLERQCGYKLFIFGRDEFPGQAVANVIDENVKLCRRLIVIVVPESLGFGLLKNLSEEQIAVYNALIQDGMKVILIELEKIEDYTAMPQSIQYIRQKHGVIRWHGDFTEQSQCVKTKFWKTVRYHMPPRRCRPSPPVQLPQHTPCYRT

Just so you know, measured EC50 (nM), IL-8 secretion by primary cynomolgus keratinocytes, 250 ng/ml cyno IL-36γ for Hzd 5D3 (APE6060) (antibody, V domains shown, also called 5D3 Humanized) VH: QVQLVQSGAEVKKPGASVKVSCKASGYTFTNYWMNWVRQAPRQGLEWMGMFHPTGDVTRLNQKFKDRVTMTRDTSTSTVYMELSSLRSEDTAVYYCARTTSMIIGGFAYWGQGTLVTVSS VL: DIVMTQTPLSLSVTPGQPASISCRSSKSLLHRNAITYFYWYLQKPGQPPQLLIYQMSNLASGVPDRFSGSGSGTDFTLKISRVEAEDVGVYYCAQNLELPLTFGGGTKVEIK came out at 1 nM

The reported value for Hzd 5D3 (APE6155) (antibody, V domains shown, also called APE6917; APE06155) VH: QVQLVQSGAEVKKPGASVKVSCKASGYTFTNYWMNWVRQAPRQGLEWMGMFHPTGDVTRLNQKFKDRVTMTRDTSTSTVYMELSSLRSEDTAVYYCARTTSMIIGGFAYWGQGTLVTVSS VL: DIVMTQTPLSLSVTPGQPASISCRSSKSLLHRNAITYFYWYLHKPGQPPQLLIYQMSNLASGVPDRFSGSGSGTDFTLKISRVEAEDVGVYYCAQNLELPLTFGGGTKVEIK in terms of EC50 (nM), IL-8 secretion by primary cynomolgus keratinocytes, 250 ng/ml cyno IL-36γ is 1.1 nM

# binder Hzd 18D4 (APE7247) (antibody, V domains shown) VH: DVQFQESGPGLVKPSQTLSLTCTVTGYSITADFAWNWIRQPPGKGLEWIGYISYSGDTNYNPSLKSRVTITRDTSKNQFSLKLSSVTAADTAVYFCAIRGPYSFTYWGQGTLVTVSSA VL: DIQMTQSPSSLSASVGDRVTITCRASQWINNYLNWYQQKPGKAPKLLIYYTSMLHSGVPSRFSPSGSGNDYTFTISSLQPEDIATYYCQQGHTLPWTFGGGTKVEIKRT ; its EC50 (nM), IL-8 secretion by primary cynomolgus keratinocytes, 250 ng/ml cyno IL-36γ = 5.6 nM

Next:
Briefly, EC50 (nM), IL-8 secretion by primary cynomolgus keratinocytes, 250 ng/ml cyno IL-36γ measured for Hzd 5D3 (APE6194) (antibody, V domains shown, also called 5D3 Humanized) VH: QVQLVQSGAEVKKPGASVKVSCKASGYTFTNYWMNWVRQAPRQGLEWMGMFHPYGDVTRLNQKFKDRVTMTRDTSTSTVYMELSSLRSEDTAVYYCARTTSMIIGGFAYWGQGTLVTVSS VL: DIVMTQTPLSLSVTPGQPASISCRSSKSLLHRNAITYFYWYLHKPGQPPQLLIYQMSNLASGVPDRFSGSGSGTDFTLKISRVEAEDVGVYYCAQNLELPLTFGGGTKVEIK : 1.2 nM
